logP of 2 or higher: fulfilled. Under 2: not fulfilled.

• CC(=O)c1ccc(O)c2ncccc12 = not fulfilled

Lookup: # bool: logP of "COc1ccc(-n2ccc(=O)c(O)c2C)cc1" >= 2
Found: not fulfilled

Lookup: # bool: logP of CCOC(=O)C(NC(=O)CCCCSc1[nH]cnc2ncnc1-2)c1ccccc1 (stereo unspecified) >= 2
Found: not fulfilled

Lookup: # bool: logP of COC(=O)CNC(=O)C1(O)C(C)CC2C3CCC4=CC(=O)C=CC4(C)C3(F)C(O)CC21C (stereo unspecified) >= 2
Found: not fulfilled

Lookup: # bool: logP of "CNN=Nc1ccc(C(N)=O)cc1" >= 2
Found: not fulfilled

* * *

metric: logP
One number for each entry.

* CN(C)N=Nc1ccc([N+](=O)[O-])cc1 | 3.25
* C#CCOc1c(Cl)cc(NC=NOCCCC)cc1Cl | 4.4
* OCCOc1ccccc1Cl | 1.81
* Cc1cccc(C)c1NC(=O)CN1CCN(CCCC(c2ccc(F)cc2)c2ccc(F)cc2)CC1 | 5.6
* CCCCOC(=O)NCCn1c([N+](=O)[O-])cnc1C | 1.22
* FC(F)(F)C(F)(F)c1ccccc1 | 3.36

# map each compound to its logP
1. CCc1cccc(NC(=O)Cc2ccccc2)c1
2. CCCn1cnc2c(NC(C)=O)ncnc21
3. CSC1=NCCN1c1ccc([N+](=O)[O-])o1
4. COc1ccc2cc(C(C)C(=O)OCC(=O)N(C)C)ccc2c1 (configuration not stated)
5. COc1c(O)cc2c(c1OC)-c1ccc(SC)c(=O)cc1C(NC(C)=O)CC2 (configuration not stated)
6. CC1CC2C3CCC4=CC(=O)C=CC4(C)C3(F)C(O)CC2(C)C1(O)C(=O)NC(CO)c1ccccc1 (configuration not stated)

Found:
1. 3.47
2. 0.09
3. 1.19
4. 2.05
5. 1.43
6. 2.89

# map each compound to its logP
1. Cc1cc([N+](=O)[O-])ccc1NN=C(C#N)C#N
2. CC(C)CCNC(=O)C1(O)C(C)CC2C3CCC4=CC(=O)C=CC4(C)C3(F)C(O)CC21C (configuration not stated)
3. COc1cccc2c1C(=O)c1c(O)c3c(c(O)c1C2=O)CC(O)(C(O)CO)CC3OC1CC(N2CCOCC2C#N)C(O)C(C)O1 (configuration not stated)
4. COC(=O)c1c(C)[nH]c(-c2ncccc2Cl)c1C(=O)OC
5. CC(C)N(C=Nc1ccn(C2OC(CO)C(O)C2O)c(=O)n1)C(C)C (configuration not stated)
6. Clc1cc(Cl)c2oc3c(Cl)cc(Cl)c(Cl)c3c2c1

Found:
1: 3.55; 2: 3.74; 3: 1.56; 4: 1.51; 5: 0.01; 6: 6.34

* * *

Where a SMILES comes first, the peptide text is derived from it.
For each of the molecules below, state its logP.

# example entries with known answers
- CCCOc1ccccc1NC(=O)OCCN1CCOCC1: 2.78
- CC(=O)NC(Cc1ccccc1)C(=O)NC(CC(=O)O)C(=O)NC(CC(C)C)C(N)=O (stereo not drawn) (Ac-Phe-Asp-Leu-NH2; configuration not given here): 0.39
- CNC(=O)C(Cc1ccc(O)cc1)NC(C)=O (stereo not given): -0.32
- Nc1ncc(Cc2cccc(Cl)c2Cl)c(N)n1: 2.81
- O=C1C(Br)=C(N2CC2)C(=O)C(Br)=C1N1CC1: 2.03
- CCCCNC(=O)CNC(=O)C=[N+]=[N-]: 0.37
- CCCCC(NC(Cc1ccccc1)C(=O)N1CCC(OCOC)CC1)C(=O)NC(CC1CCCCC1)C(O)CC(C(=O)NCCCNCCO)C(C)C (stereo not given): 3.5
- CN1CCC(=C2c3ccccc3CCc3cccnc32)CC1: 3.59

# map each molecule to its logP
1. CC1=C(C(=O)O)N2C(=O)C(NC(=O)C(OC(=O)C(C)C)c3ccccc3)C2SC1 (stereo not given)
2. O=[N+]([O-])N=C1NCCN1Cc1cccnc1

Found:
2.05
-0.19

* * *

Please respond with class 1 when measured logP is strictly beneath 0.3, and with class 0 in all other cases.

Example results:
* CCCC(=O)OCn1ncc2c(=O)[nH]cnc21 | class 0
* c1ccc(Cn2ncnn2)cc1 | class 0
* O=[N+]([O-])C=C1NCCN1Cc1ccccc1 | class 0
* CCCCCOc1ccccc1NC(=O)OCCN1CCOCC1 | class 0

Could you now consider this next molecule?
Lookup: Hi there! Is logP for "O=C(NCCO)C(F)(F)Cn1cnc([N+](=O)[O-])n1" below 0.3, do you know?
Found: class 1

* * *

Please respond with criterion met when measured logP is strictly beneath 2, and with criterion not met in all other cases.

* CCCN(C=Nc1ccn(C2OC(CO)C(O)C2O)c(=O)n1)CCC (stereo unspecified) | criterion met

Lookup: Hi there! Is logP for "Fc1ccc(C(c2ccc(F)cc2)N2CCN(C/C=C/c3ccccc3)CC2)cc1" below 2, do you know?
Found: criterion not met

Lookup: Hi there! Is logP for CC(=O)NC(CCCCN)C(=O)NC(Cc1ccccc1)C(N)=O (stereo unspecified) below 2, do you know?
Found: criterion met

Lookup: Hi there! Is logP for CCOC(=O)C(C)Oc1ccc(Oc2cnc3cc(F)ccc3n2)cc1 (stereo unspecified) below 2, do you know?
Found: criterion not met

* * *

For each of the molecules below, state its logP.
Answers are plain numbers.

* COCC(O)Cn1ncc([N+](=O)[O-])n1 (stereo unspecified) | -0.07
* N#CC(C#N)=NNc1c(Cl)cccc1Cl | 4.51

# map each molecule to its logP
1. O=[N+]([O-])C=C1NCCN1CCc1ccc(Cl)nc1
2. O=c1nc(N=CN2CCOCC2)ccn1C1CC(O)C(CO)O1 (stereo unspecified)
3. O=[N+]([O-])C=C1NCCN1Cc1ccc(Cl)nc1
4. CCOc1ccccc1OCc1ccccc1CCCN1CCC(O)CC1
5. CC(=O)OC1CC(OC2C(O)CC(OC3CCC4(C)C(CCC5C4CC(O)C4(C)C(C6=CC(=O)OC6)CCC54O)C3)OC2C)OC(C)C1OC1CC(O)C(O)C(C)O1 (stereo unspecified)
6. Clc1ccc(Cl)c(-c2cc(Cl)c(Cl)c(Cl)c2Cl)c1
7. CCCCCOC(=O)C(C(=O)OCCCCC)=C1SCCS1

Found:
1. -0.23
2. -1.54
3. -0.19
4. 3.1
5. 2
6. 7.19
7. 5.6

# map each molecule to its logP
1. CCCn1c(=O)c2nc(-c3ccccc3N)[nH]c2n(CCC)c1=O
2. Nc1ncnc2c1nc(F)n2C1CCC(CO)O1 (stereo unspecified)

Found:
1: 3.54; 2: -0.03

* * *

logP of 2 or higher: 1. Under 2: -1.

Example results:
* Clc1ccc(-c2c(Cl)ccc(Cl)c2Cl)c(Cl)c1Cl | 1
* COc1ccc2ccc(=O)oc2c1 | -1
* COc1cccc(OC)c1-c1nc2ccncc2[nH]1 | -1
* CC(=O)NC(Cc1ccccc1)C(=O)NC(CCCCN)C(N)=O (stereo unspecified) | -1
* CS(=O)(=O)N(c1ccccc1[N+](=O)[O-])S(C)(=O)=O | -1

Could you now consider this next compound?
Lookup: # bool: logP of "CSC(SC)=C(C(=O)OC(C)C)C(=O)OC(C)C" >= 2
Found: 1

* * *

Where a SMILES comes first, the peptide text is derived from it.
Please respond with true (1) when measured logP is strictly beneath 0.8, and with false (0) in all other cases.

Example results:
* Cc1cc(NC(=O)C2=C(O)c3ccccc3S(=O)(=O)N2C)no1 | false (0)
* CC(C)CNCCCS(=O)(=O)c1ccc(S(N)(=O)=O)s1 | true (1)

Lookup: Hi there! Is logP for "CC(C)CN1C(=O)C(=O)c2ccccc2C1=O" below 0.8, do you know?
Found: false (0)

Lookup: Hi there! Is logP for "Cc1c(Cl)c(Cl)c(Cl)c(Cl)c1Cl" below 0.8, do you know?
Found: false (0)

Lookup: Hi there! Is logP for C#CC1(OC(=O)C2=CN(C)C=CC2)CCC2C3CCC4=CC(=O)CCC4C3CCC21C (stereo unspecified) below 0.8, do you know?
Found: false (0)

Lookup: Hi there! Is logP for "CCCn1c(=O)c2[nH]c(-c3ccc(S(=O)(=O)NCCN(C)C)cc3)nc2n(CCC)c1=O" below 0.8, do you know?
Found: false (0)

Lookup: Hi there! Is logP for "C#CCOc1c(Cl)cc(NC=NOCCOCC)cc1Cl" below 0.8, do you know?
Found: false (0)

Lookup: Hi there! Is logP for CC(=O)NC(CC(C)C)C(=O)NC(CC(=O)O)C(=O)NC(CC(C)C)C(N)=O (stereo not drawn) (Ac-Leu-Asp-Leu-NH2; configuration not given here) below 0.8, do you know?
Found: true (1)

Lookup: Hi there! Is logP for Cc1ncnc2c1ncn2C1CCC(CO)O1 (stereo unspecified) below 0.8, do you know?
Found: true (1)

Lookup: Hi there! Is logP for "CCOC(=O)c1ccc(N=NN(C)C)cc1" below 0.8, do you know?
Found: false (0)
